ATTRIBUTE MEASURED: melting point

Fill in melting point for record `Fc1cccc2c1CN(C1=NCCO1)C2`
125 to 129 °C

Fill in melting point for record `CC=CC(=O)N(CCCC(=O)O)C(C)(C)CC(C)(C)C`
92 to 93 °C

Fill in melting point for record `O=C(N[C@H]1CCN(C(=O)c2cc(C(F)(F)F)cc(C(F)(F)F)c2)[C@H](Cc2ccc(Cl)cc2)C1)c1cc(=O)c2cc(F)ccc2o1`
215 to 218 °C

Fill in melting point for record `N#Cc1ccc(-c2ccc(-c3ccc(C#N)cn3)o2)cc1`
301 to 302 °C

Fill in melting point for record `COc1cc(C)c(C(=O)c2c(Cl)cccc2Cl)cc1[N+](=O)[O-]`
156 to 160 °C

Fill in melting point for record `CC(C)(C)OC(=O)Nc1ccc(C#Cc2ccc(Cl)cc2)cc1N`
170 to 173 °C

Fill in melting point for record `CCOc1cc(C(=O)OC)on1`
77 to 79 °C

Fill in melting point for record `COC(=O)c1cc(C)cc(CC#N)c1`
56.2 to 57.8 °C

Fill in melting point for record COC[C@@H](NC(=O)c1nn(-c2ccc(F)cc2F)c2c1C1CCC2C1)c1ccc(F)cc1 (some centres undefined)
109 to 111 °C

---

ATTRIBUTE MEASURED: melting point

Fill in melting point for record CCN(CCOC)C(=O)C1=CC(c2ccccc2)C(=O)n2cc3cccc(Cl)c3c21 (stereo not given)
146 to 148 °C

Fill in melting point for record `CN(C)CCNC(=O)c1ccc(S(N)(=O)=O)cc1`
150 to 151 °C

Fill in melting point for record `Nc1ccnn1-c1c(F)cc(C(F)(F)F)cc1Cl`
87 to 90 °C

Fill in melting point for record `O=C1C2CCC(N2)C(=O)N1Cc1ccccc1`
72 °C

Fill in melting point for record `Oc1ccc2c(c1)CCCC(c1ccccc1)=C2c1ccc(OCCCCCSCCCC(F)(F)C(F)(F)F)cc1`
167 to 168 °C

Fill in melting point for record `CCOP(=O)(/C=C/c1cn(-c2ccccc2)nc1OCc1ccc(OCc2nc(N3CCOCC3)sc2C)c(OC)c1)OCC`
88 to 90 °C

Fill in melting point for record `C=C(C)Sc1oc2cc(OC)ccc2c(=O)c1-c1ccccc1`
117 to 118 °C

Fill in melting point for record `COC(=O)CCCc1cc2cc(Cl)ccc2n1S(=O)(=O)c1ccc2ncsc2c1`
121 to 123 °C

Fill in melting point for record O=C(NC1N=C(c2ccccc2F)c2ccccc2NC1=O)c1ccccc1Cl (racemic)
224 °C

Fill in melting point for record `COc1cc(OC(C)(C)C(=O)O)c(-c2cccs2)cc1C=O`
183 to 184 °C

---

ATTRIBUTE MEASURED: melting point

Fill in melting point for record `Cc1ncn(-c2nc(Cl)c(-c3ccccc3)c3ccccc23)c1C`
164 to 165 °C

Fill in melting point for record `CCOC(=O)c1cnc2cn[nH]c2c1Sc1ccccc1`
130 to 131 °C

Fill in melting point for record COc1cc(C(=O)O)ccc1Cc1cn(C)c2ccc(CC(C)C(=O)NCC3CCCC3)cc12 (stereo not given)
103 to 109 °C

Fill in melting point for record `CCNC(=O)n1nc(Oc2c(Cl)cc(C(F)(F)F)cc2Cl)cc1CC`
86 to 89 °C

Fill in melting point for record NCC1C[N+]([O-])=C(c2ccccc2F)c2cc(Cl)ccc2N1 (stereo not given)
144 to 148 °C

Fill in melting point for record `COc1cc(OC)c2cc(-c3ccccc3)c(=O)[nH]c2c1`
257 to 258 °C

Fill in melting point for record CCOC(=O)NC(=O)N1CC1C#N (stereo not given)
108 to 110 °C

Fill in melting point for record `CCOC(=O)c1ccc(/C=C(\CC)c2ccc3c(c2)C(C)(C)CCC3(C)C)cc1`
82 to 83 °C

Fill in melting point for record `CCCCOc1ccc(-c2ccc([C@H]3CC[C@H](CCC)CC3)c(C#N)c2C#N)cc1`
115 °C

Fill in melting point for record `N#Cc1c(SC(F)(F)F)c(N)n(-c2c(Cl)cc(C(F)(F)F)cc2Cl)c1C#N`
175 to 177 °C

Fill in melting point for record O=C1NCC(CN2CCCCC2)c2c[nH]c3cccc1c23 (stereo not given)
119 to 122 °C

Fill in melting point for record `CCOP(=O)(OCC)c1ccc(N)cc1`
112 to 116 °C

Fill in melting point for record `CCOC(=O)c1cnc2ccc(CC)cc2c1O`
> 260 °C

Fill in melting point for record `COc1ccccc1N1CCN(CCc2[nH]c(=O)[nH]c2-c2ccc(F)cc2)CC1`
213 to 214 °C

Fill in melting point for record `O=c1[nH]c2ncc(-c3ccc4[nH]ncc4c3)nc2n1CC1CCCCC1`
311 to 313 °C

Fill in melting point for record `CC(C)(C)OC(=O)N1CCC(c2nc3cc(-c4ccc(C(F)(F)F)cc4)ccc3o2)CC1`
166 to 169 °C

Fill in melting point for record `O=C(O)CC(=O)OCC(Cl)(Cl)Cl`
42 to 43 °C

Fill in melting point for record `Cc1c(Cc2cccc(C(F)(F)F)c2)sc2c(-c3cc(F)cc(C(=O)NCCO)c3)cccc12`
151 to 152 °C

Fill in melting point for record `Cc1ccc(-c2ccc3c(c2)C=C(C(=O)Nc2ccc(CO)cc2)CC3)cc1`
219 to 220 °C

Fill in melting point for record `CC(C)OC(=O)c1ccccc1C(=O)O`
73 to 77 °C

---

Record form. Attribute: melting point. Fill in for each entry.

Fill in melting point for record `O=CNc1ccccc1C(=O)Nc1nnn[nH]1`
247 to 248 °C

Fill in melting point for record `CCCCCCCCc1ccc(C=CC(=O)CC(=O)OCC)cc1`
57 °C

Fill in melting point for record Cc1oc(-c2ccccc2)nc1C(O)COc1ccc(CC2SC(=O)NC2=O)nc1 (stereo unspecified)
55 to 72 °C

Fill in melting point for record CC(=CC(C)(O)c1ccc(Cl)cc1Cl)n1cncn1 (stereo unspecified)
101 °C

Fill in melting point for record `COCCc1nc2ccccn2c(=O)c1-c1ccc(Cl)cc1`
116 to 118 °C

Fill in melting point for record `c1ccc(C(OC2CCN(CCCCNc3ccc4ncnn4n3)CC2)c2ccccc2)cc1`
102 to 104 °C

Fill in melting point for record `CCC(C#N)=C1CCN(c2ccc(N3C[C@H](CNC(C)=S)OC3=O)cc2F)CC1`
174 to 176 °C

Fill in melting point for record `O=C(O)CN1C(=O)[C@@H](N[C@@H](CCc2ccccc2)C(=O)O)COc2ccccc21`
127 to 130 °C

Fill in melting point for record `CCNc1nc(=S)n(Cc2ccc(OC)c(OC3CCCC3)c2)c2nc[nH]c12`
72 to 77 °C

Fill in melting point for record `Cc1cccc(C)c1N1CN(C)CN(C)C1=S`
121 to 123 °C

Fill in melting point for record `CCCCc1ncc(/C=C2\C(=O)NC(=O)N2CCC(C)C)n1Cc1ccc(C(=O)O)cc1`
143 to 146 °C

Fill in melting point for record OCC1OC(n2cnc3c(NCC4(c5cccs5)CCC4)ncnc32)C(O)C1O (stereo unspecified)
84 to 92 °C

Fill in melting point for record `COc1ccc(CNc2n[nH]c(N=CN(C)C)c2C#N)cc1`
147 to 148 °C

Fill in melting point for record `N#CCOC(=O)c1ccc(C(c2ccccc2)c2ccccc2)cn1`
95 to 98 °C

Fill in melting point for record CC1(c2ccc(S(N)(=O)=O)cc2)Cc2cc(OCC(=O)O)c(Cl)c(Cl)c2C1=O (stereo unspecified)
258 to 260 °C

Fill in melting point for record `O=C(Cc1ccccc1)Nc1ccc(-c2ccc(C(=O)O)c(=O)[nH]2)cc1`
> 280 °C

---

Record form. Attribute: melting point. Fill in for each entry.

Fill in melting point for record `CCCOc1ccc(C=CC(=O)c2c(O)cc(OC)cc2OC)cc1`
96.7 °C

Fill in melting point for record `CC(C)N(c1nc(N)nc(-c2cc(Cl)ccc2Cl)n1)C(C)C`
158 to 159 °C

Fill in melting point for record CC(C)(C)OC(=O)CN1CCC(C)(N)C1=O (stereo not drawn)
72 to 77 °C

---

ATTRIBUTE MEASURED: melting point

Fill in melting point for record `O=C1C(=CO)Cc2ccccc21`
112 to 113 °C

Fill in melting point for record `Cc1c(C(=O)Nc2ccc(N3CCN(CCN(C)C)CC3)c(C#N)c2)cnn1-c1ccc(F)cc1`
185 °C

Fill in melting point for record `CC(=O)Nc1cccc(Nc2ncnc3[nH]cc(C(=O)c4cccc5ccccc45)c23)c1`
> 300 °C

Fill in melting point for record `Cc1cccc(CC(=O)O)c1OCCCc1cn(-c2ccc(Cl)cn2)nc1C(C)(C)C`
112 to 113 °C

Fill in melting point for record `CCOC(=O)Cc1c(C(=O)OCC)c(C)cn1CCO`
133 to 135 °C

Fill in melting point for record `COC(=O)c1nn(C)nc1C(=O)O`
125 to 126 °C

Fill in melting point for record Cc1oc(-c2ccccc2)nc1CCC(O)c1ccc(CCCC2OC(=O)NC2=O)cc1 (stereo not drawn)
150 to 151 °C

Fill in melting point for record `CON(C)CCN1C(=O)c2ccccc2C1=O`
130 to 132 °C
